# tested target: Factor X (FX), P00742
# Sequence (P00742 whole entry, looked up): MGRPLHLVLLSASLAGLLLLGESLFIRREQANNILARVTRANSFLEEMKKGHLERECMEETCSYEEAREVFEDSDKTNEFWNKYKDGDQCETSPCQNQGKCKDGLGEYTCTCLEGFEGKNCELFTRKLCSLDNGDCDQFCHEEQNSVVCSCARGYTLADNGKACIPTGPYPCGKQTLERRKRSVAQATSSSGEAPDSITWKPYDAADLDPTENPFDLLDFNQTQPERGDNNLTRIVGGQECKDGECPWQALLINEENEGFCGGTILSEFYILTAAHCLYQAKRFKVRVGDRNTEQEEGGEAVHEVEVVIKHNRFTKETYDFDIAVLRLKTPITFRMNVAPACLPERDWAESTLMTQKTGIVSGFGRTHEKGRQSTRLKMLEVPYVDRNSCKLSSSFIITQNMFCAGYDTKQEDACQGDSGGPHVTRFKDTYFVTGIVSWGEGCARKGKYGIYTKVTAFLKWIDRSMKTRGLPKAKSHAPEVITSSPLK
measured attribute: % of WT kcat/KM (%)
Quick reminder: number only, in %, skip the unit.

Quick note, % of WT kcat/KM for FIXa variant D203N/F205T/K228N (protein) chain 1: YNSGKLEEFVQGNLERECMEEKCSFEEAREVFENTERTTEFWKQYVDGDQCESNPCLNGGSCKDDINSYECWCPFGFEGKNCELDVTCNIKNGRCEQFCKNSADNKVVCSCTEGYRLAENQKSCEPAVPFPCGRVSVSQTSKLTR chain 2: VVGGEDAKPGQFPWQVVLNGKVNATCGGSIVNEKWIVTAAHCVETGVNITVVAGEHNIEETEHTEQKRNVIRIIPHHNYNAAINKYNHDIALLELDEPLVLNSYVTPICIADKEYTNIFLKFGSGYVSGWGRVFHKGRSALVLQYLRVPLVDRATCLRSTKFTIYNNMFCAGFHEGGRDSCQGDSGGPHVTEVEGTSFLTGIISWGEECAMKGKYGIYTKVSRYVNWIKEKTKLT landed at 30

Entry source: patent US20210238260
